Target: T1, PSD-95 PDZ1-2 (UniProt P78352 61-249, limits assumed)
T1 construct: domain: PDZ1-2
T1 sequence (P78352 61-249 limits assumed): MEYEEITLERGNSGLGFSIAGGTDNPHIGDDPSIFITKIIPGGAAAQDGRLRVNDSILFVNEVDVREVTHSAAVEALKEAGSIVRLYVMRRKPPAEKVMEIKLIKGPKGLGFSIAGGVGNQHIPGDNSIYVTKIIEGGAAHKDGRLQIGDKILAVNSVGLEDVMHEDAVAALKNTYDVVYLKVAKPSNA
Assay: FP competition, tracer 5-FAM-(IETAV)2 5 nM, PSD-95 PDZ12 0.15 µM
pKi: −log10 of the molar value. Ends that are not written are not given here. * marks the point of attachment. Biotin = O=C1N[C@H]2[C@H](CS[C@H]2CCCCC(=O)*)N1; Ahx = NCCCCCC(=O)O
recorded metric: pKi

>>> observed("{Biotin-Ahx}-GEIAKSLKEIAKSLKEIAWSLKEIAKSLKGGGGSRRTTPV [CC-Hex2-GS4-RRTTPV]")
6.62
>>> observed("{Biotin-Ahx}-GEIAKSLKEIAKSLKEIAWSLKEIAKSLKGGGGSIETDV [CC-Hex2-GS4-IETDV]")
7.25
